molecular target: T1, hDNMT1 BAH1 domain from the His6-MBP vector (human, UniProt P26358 728-900); experiment: ITC; hDNMT1 BAH1 (WT, W796A or Mut^YW) with the autoinhibitory linker peptide hDNMT1(714-727); 5 °C; single-site fit; conditions: both partners purified
T1 construct: numbering on isoform 1 of DNMT1 with 1616 amino acids; also called WT; source: E. coli BL21(DE3) RIL, purified (Ni, ion exchange, TEV cleavage, Ni, SEC); not shown: His6-MBP, N-terminal, cleaved
T1 sequence (P26358 728-900): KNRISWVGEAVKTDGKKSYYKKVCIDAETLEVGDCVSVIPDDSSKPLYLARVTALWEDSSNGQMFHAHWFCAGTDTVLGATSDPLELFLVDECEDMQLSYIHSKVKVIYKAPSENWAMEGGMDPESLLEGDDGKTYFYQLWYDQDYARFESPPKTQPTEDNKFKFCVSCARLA
quantity_measured: Kd

[
  {
    "binder": "SPKKMHQGKKKKQNY (numbering on isoform 1 of DNMT1 with 1616 amino acids; additional C-terminal tyrosine for spectroscopic quantification; source: synthetic peptide (LifeTein)) [autoinhibitory linker peptide hDNMT1(714–727)]",
    "val": "~70 µM"
  }
]
